Target: T1, EsCas13d, nuclease-dead (Eubacterium siraeum, UniProt B0MS50, R295A;H300A;R849A;H854A)
T1 sequence: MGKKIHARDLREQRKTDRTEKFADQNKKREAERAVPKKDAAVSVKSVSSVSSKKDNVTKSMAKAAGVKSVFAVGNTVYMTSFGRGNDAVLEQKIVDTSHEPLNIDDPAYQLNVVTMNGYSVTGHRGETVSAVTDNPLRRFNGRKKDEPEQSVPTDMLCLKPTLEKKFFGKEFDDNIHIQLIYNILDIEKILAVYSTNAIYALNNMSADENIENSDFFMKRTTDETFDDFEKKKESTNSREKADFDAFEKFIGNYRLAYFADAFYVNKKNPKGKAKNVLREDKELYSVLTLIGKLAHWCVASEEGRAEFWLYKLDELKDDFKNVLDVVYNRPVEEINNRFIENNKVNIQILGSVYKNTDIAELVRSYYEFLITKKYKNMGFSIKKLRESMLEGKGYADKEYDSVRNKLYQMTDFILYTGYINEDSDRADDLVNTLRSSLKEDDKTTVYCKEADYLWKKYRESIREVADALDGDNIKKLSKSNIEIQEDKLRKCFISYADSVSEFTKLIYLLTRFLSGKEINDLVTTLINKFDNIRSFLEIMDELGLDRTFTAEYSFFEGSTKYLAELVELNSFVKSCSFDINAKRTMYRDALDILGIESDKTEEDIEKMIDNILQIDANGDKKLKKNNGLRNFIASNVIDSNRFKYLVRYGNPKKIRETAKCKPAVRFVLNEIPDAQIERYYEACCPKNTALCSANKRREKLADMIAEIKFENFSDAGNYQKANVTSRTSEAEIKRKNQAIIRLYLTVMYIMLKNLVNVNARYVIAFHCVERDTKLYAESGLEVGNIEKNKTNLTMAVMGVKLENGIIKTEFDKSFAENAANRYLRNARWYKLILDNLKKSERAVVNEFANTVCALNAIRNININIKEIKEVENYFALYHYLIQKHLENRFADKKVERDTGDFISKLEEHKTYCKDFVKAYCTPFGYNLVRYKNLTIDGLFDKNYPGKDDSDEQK
Assay: crRNA (strand 1, pre-loaded); Mg2+; 40 mM Tris-HCl pH 7.5, 150 mM NaCl, 6 mM MgCl2, 1 mM DTT, 0.1% Tween-20, 0.2 mg/ml BSA; 25 C; 10 min per concentration, then washed
Conditions: tags: His6-TwinStrep-SUMO cleaved; N-terminal SNAP kept (SNAP-Surface 488); label: 3' end held by stalled T7 RNA polymerase
Could you please mark 1.0 for values of Kd below 20 nM and 0.0 for values at or above it?

Look over these answered cases.
target 1 C7A,G12A (mixed) RNA 1: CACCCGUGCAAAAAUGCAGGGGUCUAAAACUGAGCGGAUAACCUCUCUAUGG RNA 2: GGGAAUGGAUCCACAUCUACGAAUUCGUACCAUAGAGAGAUUAUACGCUCACCGAGAUCGGAAGAGCACACGU | 1.0
target 1 MT 5'PFS ACA 3'PFS AUG (mixed) RNA 1: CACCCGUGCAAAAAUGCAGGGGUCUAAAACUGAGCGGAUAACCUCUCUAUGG RNA 2: GGGAAUGGAUCCACAUCUACGAAUUCACACCAUAGAGAGGUUAUCCGCUCAAUGAGAUCGGAAGAGCACACGU | 0.0
target 3 C1A,A11G (mixed) RNA 1: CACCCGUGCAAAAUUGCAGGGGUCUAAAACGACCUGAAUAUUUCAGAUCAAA RNA 2: GGGAAUGGAUCCACAUCUACGAAUUCGUUUUUGAUCUGAAGUAUUCAGGUAUGCAGAUCGGAAGAGCACACGU | 0.0
target 1 insA 3' of 17,insG 3' of 1 (mixed) RNA 1: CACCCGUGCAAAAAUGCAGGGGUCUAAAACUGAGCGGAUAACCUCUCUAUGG RNA 2: GGGAAUGGAUCCACAUCUACGAAUUCGUACCAUAGAAGAGGUUAUCCGCUCAGCCGAGAUCGGAAGAGCACACGU | 1.0
target 2 MT 5'PFS AGA 3'PFS CUA (mixed) RNA 1: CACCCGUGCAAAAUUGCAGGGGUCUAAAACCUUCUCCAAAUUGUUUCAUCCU RNA 2: GGGAAUGGAUCCACAUCUACGAAUUCAGAAGGAUGAAACAAUUUGGAGAAGCUAAGAUCGGAAGAGCACACGU | 1.0
target 1 G15C (mixed) RNA 1: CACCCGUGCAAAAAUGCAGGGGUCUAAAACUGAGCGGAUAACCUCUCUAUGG RNA 2: GGGAAUGGAUCCACAUCUACGAAUUCGUACCAUAGACAGGUUAUCCGCUCACCGAGAUCGGAAGAGCACACGU | 0.0
target 1 MT 5'PFS CAG 3'PFS AGU (mixed) RNA 1: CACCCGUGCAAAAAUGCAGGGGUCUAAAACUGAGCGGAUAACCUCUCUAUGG RNA 2: GGGAAUGGAUCCACAUCUACGAAUUCCAGCCAUAGAGAGGUUAUCCGCUCAAGUAGAUCGGAAGAGCACACGU | 0.0

As a next step, examine the binder that follows.
Q: Quick check: Kd of target 2 MT 5'PFS AUC 3'PFS AGC (mixed) RNA 1: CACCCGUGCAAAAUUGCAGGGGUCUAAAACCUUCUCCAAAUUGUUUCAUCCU RNA 2: GGGAAUGGAUCCACAUCUACGAAUUCAUCAGGAUGAAACAAUUUGGAGAAGAGCAGAUCGGAAGAGCACACGU under 20 nM?
A: 0.0
